Data provenance is patent US8158088B2.

- assay procedure: Solvent stability: cesium distribution ratios as a function of contact time with 1.5 M HNO3
- Assay type: physicochemical
- settings: contact time 34 days with 1.5 M HNO3
- Procedure: The stability of the mixed extractant solvents prepared using dialkyloxycalix[4]arenebenzocrown-6 compounds (MC-8, MC-8B, MC-10, MC-10B, MC-12, or MC-12B) relative to BOBCalixC6 in the FPEX I process solvent was determined. Samples were prepared using each of the dialkyloxycalix[4]arenebenzocrown-6 compounds and contacted with 1.5 M HNO3. […]
endpoint name: Cesium distribution ratio as a function of contact time

Specify measured Cesium distribution ratio as a function of contact time for CCCCCCCCOc1c2cccc1Cc1cccc3c1OCCOCCOc1ccccc1OCCOCCOc1c(cccc1Cc1cccc(c1OCCCCCCCC)C3)C2 . 3.2

Note Cesium distribution ratio as a function of contact time for the molecule shown: CCCCCCCCCCOc1c2cccc1Cc1cccc3c1OCCOCCOc1ccccc1OCCOCCOc1c(cccc1Cc1cccc(c1OCCCCCCCCCC)C3)C2 3.0

I: CC(C)CCCC(C)CCOc1c2cccc1Cc1cccc3c1OCCOCCOc1ccccc1OCCOCCOc1c(cccc1Cc1cccc(c1OCCC(C)CCCC(C)C)C3)C2 (stereo not shown) [MC-10B]
II: CCCCC(CC)COc1c2cccc1Cc1cccc3c1OCCOCCOc1ccccc1OCCOCCOc1c(cccc1Cc1cccc(c1OC[C@H](CC)CCCC)C3)C2 (stereo partly shown)
Response body: label of entry with the larger Cesium distribution ratio as a function of contact time; valid values I , II . Answer format: the label of the selected item. I
